Measured protein stability index accompanies every entry in the list below.
experiment: protein stability index of a GFP-peptide fusion (yeast GPS) (PSI 1-4); higher = more stable; sorted into four equal gates, so the index is relative within each strain
reported-conditions: san1∆

APLKALVQEQVREFQRR [BRR2]	1.3

Recorded result, TGGLFGAKPAGSTGGLG [YGL172W/NUP49] , protein stability index: 3.23

Recorded result, MKAVGEYMKRHPTTIES [SEC65] , protein stability index: 1.64

Recorded result, KKGEYARFKSKDERDTW [SMC3] , protein stability index: 2.69

Recorded result, SIESKLEEHKNHLDELQ [SMC1] , protein stability index: 2.92

Recorded result, DLIADTITNSSSSSDII [YML103C/NUP188] , protein stability index: 2.63
